Values from paper PMC8617031

experiment-description: Viability (MTS) of 293T cells
Assay type: cell-based, human
run-conditions: human
value-type: viability at 72 h, 0.111111 µM (%)
Report only the number, with the unit % understood.

Prompt line: Which viability at 72 h, 0.111111 µM value belongs to Cc1ncsc1-c1ccc([C@H](C)NC(=O)[C@@H]2C[C@@H](O)CN2C(=O)[C@@H](NC(=O)CCCCCC(=O)N2CCN(CC[C@H](CSc3ccccc3)Nc3ccc(S(=O)(=O)NC(=O)c4ccc(N5CCN(CC6=C(c7ccc(Cl)cc7)CCC(C)(C)C6)CC5)cc4)cc3S(=O)(=O)C(F)(F)F)CC2)C(C)(C)C)cc1 [DT2216] ?
Response line: 110
